Values were extracted from the METLIN SMRT retention time set (Domingo-Almenara et al. 2019).

experiment: gradient 5% acetonitrile 3 min, to 50% in 2 min, to 85% in 15 min, held 3 min, 100 µL/min; conditions: column: Zorbax Extend-C18 2.1 x 50 mm; eluents: water / acetonitrile, 0.1% formic acid
READOUT: RP-LC retention time (s)

For orientation, consider the following solved cases.
- CCCCNC(=O)CSc1cc(N2CCC(C(=O)NC3CC3)CC2)ncn1: 615
- Cc1ccc(CN2CC(=O)N(c3ccccc3)[C@@H]3CS(=O)(=O)C[C@@H]32)cc1: 800
- O=C(O)CSc1nnc(-c2ccc(Cl)cc2Cl)n1Cc1ccccc1: 771

(P) CN1CCN(c2cc(C(=O)O)c3cc(F)ccc3n2)CC1
(Q) CCOC(=O)c1c(C)[nH]c(NC(=O)Nc2ccccc2C)c1C
Query: Would you kindly point out which of P and Q has the smaller RP-LC retention time figure? # answer = label of selected item
Reply: P
(P: 551 s, Q: 912 s)
